- Tested on: HaCaT cells
- PROTOCOL_NOTES: Dose-dependent cell viability, preliminary IC50 experiment (HaCaT)
- Format: cell-based, human
- SETUP_CONDITIONS: FIG. 6
pIC50: −log10 of the molar value.
ASSAY_READOUT: pIC50

* O=c1[nH]c2ccccc2n1C1CCN(Cc2ccc(-c3nc4cc5[nH]cnc5cc4nc3-c3ccccc3)cc2)CC1 | 4.60
